Ref: patent US11339169B2

Below, each entry is listed alongside its reported pIC50.
target: hP2X2/3 (Homo sapiens, UniProt P56373+Q9UBL9); experiment: FLIPR intracellular calcium assay, hP2X2/3; details: human P2X2/3-TRex293 cells, agonist at EC75
Sequence (P56373 whole entry): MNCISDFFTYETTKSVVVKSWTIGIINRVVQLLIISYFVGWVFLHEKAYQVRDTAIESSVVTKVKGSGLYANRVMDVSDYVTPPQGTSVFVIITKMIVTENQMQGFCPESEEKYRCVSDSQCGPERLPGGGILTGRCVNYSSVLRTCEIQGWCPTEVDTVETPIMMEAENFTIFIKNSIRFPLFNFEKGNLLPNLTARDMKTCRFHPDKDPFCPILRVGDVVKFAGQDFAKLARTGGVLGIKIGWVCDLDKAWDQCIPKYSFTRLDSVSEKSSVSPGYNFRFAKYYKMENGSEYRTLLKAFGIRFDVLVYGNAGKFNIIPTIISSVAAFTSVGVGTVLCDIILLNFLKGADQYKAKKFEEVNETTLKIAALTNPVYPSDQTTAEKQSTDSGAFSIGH
Sequence (Q9UBL9 whole entry): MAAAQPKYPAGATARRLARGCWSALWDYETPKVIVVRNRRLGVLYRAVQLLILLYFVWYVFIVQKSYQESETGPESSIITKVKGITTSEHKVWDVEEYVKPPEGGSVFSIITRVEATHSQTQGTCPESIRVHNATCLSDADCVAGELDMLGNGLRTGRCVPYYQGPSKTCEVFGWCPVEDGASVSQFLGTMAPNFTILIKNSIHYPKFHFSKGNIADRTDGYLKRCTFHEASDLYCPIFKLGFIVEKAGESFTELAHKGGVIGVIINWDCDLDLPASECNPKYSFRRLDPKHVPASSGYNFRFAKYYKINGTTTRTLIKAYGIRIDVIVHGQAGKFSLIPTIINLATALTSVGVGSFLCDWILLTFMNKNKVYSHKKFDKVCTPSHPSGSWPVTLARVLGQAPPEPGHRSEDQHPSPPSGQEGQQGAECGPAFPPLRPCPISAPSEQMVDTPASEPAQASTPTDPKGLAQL
pIC50: −log10 of the molar value.

A selection of reference data follows.
Documented pIC50 of CCC(CC)n1ncc2nc(N3CCN(C(C)=O)CC3)nc(NC(c3cnc4ccc(F)cc4c3)C3CC3)c21 (stereo not shown) [Example 65] : 6.00 to 7.00

For record CCC(C)n1ncc2nc(-c3cnn(C)c3)nc(N[C@@H](c3cnc4ccccc4c3)C3CC3)c21 (stereo partly shown) [Example 114] the listed pIC50 is 7.00 to 9.00

Just so you know, measured pIC50 for CCC(C)n1ncc2nc(-c3cnn(CCO)c3)nc(N[C@@H](c3cnc4ccccc4c3)C3CC3)c21 (stereo partly shown) [Example 121] came out at 6.00 to 7.00

The molecule CCC(C)n1ncc2nc(N3CCN(/C(N)=N\C#N)CC3)nc(N[C@H](C)c3cnc4ccccc4c3)c21 (stereo partly shown) [Example 111] showed pIC50 equal to 7.00 to 9.00

pIC50 measured on CCC(C)n1ncc2nc(N3CCN(C(C)=O)CC3)nc(N[C@H](CC)c3cnc4ccccc4c3)c21 (stereo partly shown) [Example 43] = 5.00 to 6.00

# molecule CC[C@H](C)n1ncc2nc(N3CCN(C(N)=O)CC3)nc(NC(c3ccc4c(cnn4CC)c3)C3CC3)c21 (stereo partly shown) [Example 80] ; its pIC50 = 5.00 to 6.00

Further cases:
The molecule identified as CC(=O)N1CCN(c2nc(N[C@H](C)c3cnc4ccccc4c3)c3c(cnn3C(C)C(C)C)n2)CC1 (stereo partly shown) [Example 60] registered its pIC50 at 6.00 to 7.00

* * *

Reported IC50 is given for each of the following molecules.
target: hP2X2/3 (Homo sapiens, UniProt P56373+Q9UBL9); assay: FLIPR intracellular calcium assay, hP2X2/3; settings: human P2X2/3-TRex293 cells, agonist at EC75

Query CCC(C)n1nc(C#N)c2nc(N3CCN(C(C)=O)CC3)nc(N[C@H](C)c3cnc4ccccc4c3)c21 (stereo partly shown) yields IC50 of 1 to 10 µM

Sure, the documented IC50 for CCC(C)n1cc2nc(N3CCN(C(C)=O)CC3)nc(NC(C)(C)Cc3ccc(Cl)cc3)c2n1 (stereo not shown) is 1 to 10 µM

Further cases:
Form field IC50, entry "CC(=O)N1CCN(c2nc(NCc3cnc4ccccc4c3)c3c(cnn3C(C)C)n2)CC1" : > 10 µM

The recorded IC50 for entry CCC(C)n1ncc2nc(-n3cncn3)nc(N[C@@H](c3cnc4ccccc4c3)C3CC3)c21 (stereo partly shown) equals 1 to 10 µM

* * *

target: hP2X2/3 (Homo sapiens, UniProt P56373+Q9UBL9); assay: FLIPR intracellular calcium assay, hP2X2/3; conditions: human P2X2/3-TRex293 cells, agonist at EC75
QUANTITY MEASURED: IC50

// sample "CC[C@@H](C)n1ncc2nc(N3CCN(C(N)=O)CC3)nc(N[C@@H](c3cnc4ccccc4c3)C3CC3)c21" , its IC50 was 1 to 100 nM

// sample CC(=O)N1CCN(c2nc(NC(C)c3cnc4ccccc4c3)c3c(cnn3C(C)C)n2)CC1 (centres unmarked) , its IC50 was 1000 to 10000 nM

The compound listed as CCC(CC)n1ncc2nc(N3CCN(C(C)=O)CC3)nc(NC(C)c3ccc4sccc4c3)c21 (centres unmarked) shows IC50 equal to 100 to 1000 nM

Kindly note the recorded IC50 for "CC(C)n1ncc2nc(N3CCN(C(N)=O)CC3)nc(N[C@@H](c3cnc4ccccc4c3)C3CC3)c21" , which is 100 to 1000 nM

Please fill in: IC50 reported for CC[C@H](C)n1ncc2nc(-c3cnn(CCF)c3)nc(NC(CO)c3cnc4ccccc4c3)c21 (some centres unmarked) = 100 to 1000 nM
